molecular target: JAK3 (Homo sapiens, UniProt P52333); construct: made in house; host or cells: SF9 insect cells (baculovirus); assay: JAK3 inhibition (Table 4); assay type: biochemical; details: read-out: JAK3 Ki
Sequence (P52333 783-1124): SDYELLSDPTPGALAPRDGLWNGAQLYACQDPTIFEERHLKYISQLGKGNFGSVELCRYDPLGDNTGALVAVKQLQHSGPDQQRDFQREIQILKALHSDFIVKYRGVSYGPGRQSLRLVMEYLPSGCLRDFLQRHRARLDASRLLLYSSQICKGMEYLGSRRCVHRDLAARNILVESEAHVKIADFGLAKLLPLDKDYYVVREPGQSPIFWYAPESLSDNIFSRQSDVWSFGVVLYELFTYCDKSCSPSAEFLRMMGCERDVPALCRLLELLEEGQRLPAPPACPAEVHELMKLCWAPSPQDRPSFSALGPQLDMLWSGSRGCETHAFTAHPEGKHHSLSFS
measured.property: Ki
Write the numeric value and append its unit.

Task item: For the molecule CCC(C)S(=O)(=O)NCCc1nc2cnc3[nH]ccc3c2n1C1CCN(CCC#N)CC1 (racemic) [Example 369] , what Ki is on record?
Reply: 25.5 nM

Task item: Can you check O=S(=O)(C1CCCC1)N1CCC(n2cnc3cnc4[nH]ccc4c32)CC1 [Example 443] next?
Reply: 419 nM

Task item: N#CCCN[C@H]1CC[C@H](n2nnc3cnc4[nH]ccc4c32)CC1 [Example 280] ?
Reply: 127 nM

Task item: Here is the next molecule: N#CCCN1CCC(n2c(CC(=O)N3CCCC3)nc3cnc4[nH]ccc4c32)CC1 [Example 270]
Reply: 15.1 nM
